# System: Aphis craccivoral
# Run Description: Insecticidal activities to aphids, immersion method
# Assay type: in vivo
# Assay Setup: in vivo
Consider the following compounds; for each one, report its Aphis craccivoral Mortality (%) 500 ppm.
Only the number, expressed in %, is required.

Prompt: Provide Aphis craccivoral Mortality (%) 500 ppm, tested on Aphis craccivoral, for O=[N+]([O-])C(=Cc1ccc(Br)s1)C1=NCCN1Cc1cnc(Cl)s1 .
Completion: 100

Prompt: Provide Aphis craccivoral Mortality (%) 500 ppm, tested on Aphis craccivoral, for CC(=C(C1=NCCN1C(C)c1ccc(Cl)nc1)[N+](=O)[O-])c1ccc(Br)o1 (racemic) .
Completion: 98

Prompt: Provide Aphis craccivoral Mortality (%) 500 ppm, tested on Aphis craccivoral, for CCN(Cc1ccc(Cl)nc1)C(=NC)C(=C(C)c1cccs1)[N+](=O)[O-] .
Completion: 100

Prompt: Provide Aphis craccivoral Mortality (%) 500 ppm, tested on Aphis craccivoral, for Cc1ccc(C=C(C2=[N+](C)CCN2Cc2ccc(Cl)nc2)[N+](=O)[O-])s1.[Cl-] .
Completion: 100

Prompt: Provide Aphis craccivoral Mortality (%) 500 ppm, tested on Aphis craccivoral, for CC[N+]1=C(/C(=C\c2ccc[nH]2)[N+](=O)[O-])N(Cc2ccc(Cl)nc2)CC1.[Cl-] .
Completion: 100

Prompt: Provide Aphis craccivoral Mortality (%) 500 ppm, tested on Aphis craccivoral, for CCN(C(=NC)C(=Cc1ccc(Cl)o1)[N+](=O)[O-])C(C)c1ccc(Cl)nc1 (centres unmarked) .
Completion: 42

Prompt: Provide Aphis craccivoral Mortality (%) 500 ppm, tested on Aphis craccivoral, for O=[N+]([O-])C(=Cc1oc(Br)cc1Br)C1=NCCN1Cc1cnc(Cl)s1 .
Completion: 100

Prompt: Provide Aphis craccivoral Mortality (%) 500 ppm, tested on Aphis craccivoral, for C[N+]1=C(C(=Cc2cccs2)[N+](=O)[O-])N(Cc2ccc(Cl)nc2)CC1.[Cl-] .
Completion: 100

Prompt: Provide Aphis craccivoral Mortality (%) 500 ppm, tested on Aphis craccivoral, for O=[N+]([O-])C(=Cc1cc(Br)cs1)C1=NCCCN1Cc1ccc(Cl)nc1 .
Completion: 65

Prompt: Provide Aphis craccivoral Mortality (%) 500 ppm, tested on Aphis craccivoral, for CN=C(C(=Cc1ccc([N+](=O)[O-])o1)[N+](=O)[O-])N(C)Cc1cnc(Cl)s1 .
Completion: 77

Prompt: Provide Aphis craccivoral Mortality (%) 500 ppm, tested on Aphis craccivoral, for CC(=C(C1=NCCN1Cc1ccc(Cl)nc1)[N+](=O)[O-])c1ccc(Cl)s1 .
Completion: 93

Prompt: Provide Aphis craccivoral Mortality (%) 500 ppm, tested on Aphis craccivoral, for C[N+]1=C(C(=Cc2ccoc2)[N+](=O)[O-])N(Cc2ccc(Cl)nc2)CC1.[Cl-] .
Completion: 100

Prompt: Provide Aphis craccivoral Mortality (%) 500 ppm, tested on Aphis craccivoral, for Cc1csc(C=C(C2=[N+](C)CCN2Cc2ccc(Cl)nc2)[N+](=O)[O-])c1.[Cl-] .
Completion: 100

Prompt: Provide Aphis craccivoral Mortality (%) 500 ppm, tested on Aphis craccivoral, for O=[N+]([O-])C(=Cc1cc(Br)co1)C1=NCCCN1Cc1ccc(Cl)nc1 .
Completion: 100

Prompt: Provide Aphis craccivoral Mortality (%) 500 ppm, tested on Aphis craccivoral, for CCN(Cc1ccc(Cl)nc1)C(=NC)C(=Cc1ccc([N+](=O)[O-])s1)[N+](=O)[O-] .
Completion: 100

Prompt: Provide Aphis craccivoral Mortality (%) 500 ppm, tested on Aphis craccivoral, for CCN(Cc1ccc(Cl)nc1)C(=NC)C(=Cc1ccc[nH]1)[N+](=O)[O-] [Compound 188] .
Completion: 100

Prompt: Provide Aphis craccivoral Mortality (%) 500 ppm, tested on Aphis craccivoral, for O=[N+]([O-])C(=Cc1ccccc1)C1=NCCN1Cc1ccc(Cl)nc1 .
Completion: 67

Prompt: Provide Aphis craccivoral Mortality (%) 500 ppm, tested on Aphis craccivoral, for CCN(Cc1cnc(Cl)s1)C(=NC)C(=Cc1ccc([N+](=O)[O-])o1)[N+](=O)[O-] .
Completion: 100

Prompt: Provide Aphis craccivoral Mortality (%) 500 ppm, tested on Aphis craccivoral, for O=[N+]([O-])C(=Cc1ccc(Br)s1)C1=NCCCN1Cc1ccc(Cl)nc1 .
Completion: 73

Prompt: Provide Aphis craccivoral Mortality (%) 500 ppm, tested on Aphis craccivoral, for CCC(c1ccc(Cl)nc1)N1CCN=C1C(=Cc1ccc[nH]1)[N+](=O)[O-] (racemic) .
Completion: 73

Prompt: Provide Aphis craccivoral Mortality (%) 500 ppm, tested on Aphis craccivoral, for O=[N+]([O-])C(=Cc1cc(Br)cs1)C1=NCCN1Cc1ccc(Cl)nc1 .
Completion: 100

Prompt: Provide Aphis craccivoral Mortality (%) 500 ppm, tested on Aphis craccivoral, for CCN(Cc1cnc(Cl)s1)C(=NC)C(=Cc1ccc[nH]1)[N+](=O)[O-] .
Completion: 37

Prompt: Provide Aphis craccivoral Mortality (%) 500 ppm, tested on Aphis craccivoral, for O=[N+]([O-])C(=Cc1ccc(Br)s1)C1=NCCN1Cc1ccc(Cl)nc1 .
Completion: 100

Prompt: Provide Aphis craccivoral Mortality (%) 500 ppm, tested on Aphis craccivoral, for CN=C(C(=Cc1ccc([N+](=O)[O-])s1)[N+](=O)[O-])N(C)Cc1ccc(Cl)nc1 [Compound 168] .
Completion: 80

Prompt: Provide Aphis craccivoral Mortality (%) 500 ppm, tested on Aphis craccivoral, for Cc1ccc(C=C(C2=NCCN2Cc2ccc(Cl)nc2)[N+](=O)[O-])s1 .
Completion: 100

Prompt: Provide Aphis craccivoral Mortality (%) 500 ppm, tested on Aphis craccivoral, for O=[N+]([O-])C(=Cc1ccncc1)C1=NCCN1Cc1ccc(Cl)nc1 .
Completion: 24

Prompt: Provide Aphis craccivoral Mortality (%) 500 ppm, tested on Aphis craccivoral, for N#CC(=Cc1cccs1)C1=NCCN1Cc1ccc(Cl)nc1 .
Completion: 100

Prompt: Provide Aphis craccivoral Mortality (%) 500 ppm, tested on Aphis craccivoral, for C[N+]1=C(C(=Cc2ccc([N+](=O)[O-])s2)[N+](=O)[O-])N(Cc2cnc(Cl)s2)CC1.[Cl-] .
Completion: 100

Prompt: Provide Aphis craccivoral Mortality (%) 500 ppm, tested on Aphis craccivoral, for O=[N+]([O-])C(=Cc1ccc(CO)s1)C1=NCCN1Cc1ccc(Cl)nc1 .
Completion: 100

Prompt: Provide Aphis craccivoral Mortality (%) 500 ppm, tested on Aphis craccivoral, for C[N+]1=C(C(=Cc2ccc(Cl)o2)[N+](=O)[O-])N(Cc2ccc(Cl)nc2)CC1.[Cl-] .
Completion: 100

Prompt: Provide Aphis craccivoral Mortality (%) 500 ppm, tested on Aphis craccivoral, for C[N+]1=C(C(=Cc2sc(Cl)cc2Cl)[N+](=O)[O-])N(Cc2ccc(Cl)nc2)CC1.[Cl-] .
Completion: 100

Prompt: Provide Aphis craccivoral Mortality (%) 500 ppm, tested on Aphis craccivoral, for N#CC(=Cc1cc(Br)c(Br)o1)C1=NCCN1Cc1ccc(Cl)nc1 .
Completion: 87

###

Consider the following molecules; for each one, report its Plutella xylostella Mortality (%) 500 ppm.
# Tested on: Plutella xylostella
# Run Description: Insecticidal activities to diamondback moth, feeding dipped leaves
# Assay type: in vivo
# Assay Setup: in vivo
Only the number, expressed in %, is required.

Prompt: Quickly give me recorded Plutella xylostella Mortality (%) 500 ppm for N#CC(=Cc1ccco1)C1=NCCN1Cc1ccc(Cl)nc1 [Compound 140]
Completion: 100

Prompt: Quickly give me recorded Plutella xylostella Mortality (%) 500 ppm for O=[N+]([O-])C(=Cc1ccc([N+](=O)[O-])o1)C1=NCCCN1Cc1ccc(Cl)nc1 [Compound 48]
Completion: 100

Prompt: Quickly give me recorded Plutella xylostella Mortality (%) 500 ppm for CC[N+]1=C(C(=Cc2ccc(Cl)s2)[N+](=O)[O-])N(Cc2ccc(Cl)nc2)CC1.[Cl-] [Compound 294]
Completion: 100

Prompt: Quickly give me recorded Plutella xylostella Mortality (%) 500 ppm for CC(=C(C1=NCCN1Cc1ccc(Cl)nc1)[N+](=O)[O-])c1ccoc1 [Compound 112]
Completion: 53

###

# Tested on: Aphis craccivoral
# Run Description: Insecticidal activities to aphids, immersion method
# Assay type: in vivo
# Assay Setup: in vivo
Metric: Aphis craccivoral Mortality (%) 500 ppm
Only the number, expressed in %, is required.

Prompt: Quickly give me recorded Aphis craccivoral Mortality (%) 500 ppm for O=[N+]([O-])C(=Cc1cc(Br)c(Br)o1)C1=NCCCN1Cc1ccc(Cl)nc1
Completion: 98

Prompt: Quickly give me recorded Aphis craccivoral Mortality (%) 500 ppm for N#CC(=Cc1ccc(CO)o1)C1=NCCN1Cc1ccc(Cl)nc1
Completion: 92

Prompt: Quickly give me recorded Aphis craccivoral Mortality (%) 500 ppm for CN=C(C(=Cc1ccc(Cl)o1)[N+](=O)[O-])N(C)Cc1ccc(Cl)nc1 [Compound 164]
Completion: 100

Prompt: Quickly give me recorded Aphis craccivoral Mortality (%) 500 ppm for CN=C(NCc1ccc(Cl)nc1)C(=Cc1ccc([N+](=O)[O-])s1)[N+](=O)[O-]
Completion: 43
